B1: library; a variant is named by its letters at N, in order (parent)
chain: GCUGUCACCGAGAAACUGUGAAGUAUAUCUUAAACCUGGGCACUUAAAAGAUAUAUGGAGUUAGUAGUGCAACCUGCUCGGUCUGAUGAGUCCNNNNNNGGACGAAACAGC

Variants of: B1
Measurement notes: normalized RNA/DNA level with ligand (relative to sTRSVctl = 100) (log10 (% of sTRSVctl)); HEK293T; ligand: cyclic di-GMP (c-di-GMP-II aptamer); ligand concentration (+) RNA-Seq: 1 mM; higher = less ribozyme self-cleavage, higher mRNA level
Measurement parameters: reporter: mCherry (pCS4076), ligand present: yes
Entries and their normalized RNA/DNA level with ligand (log10) values follow.
Measured endpoint: normalized RNA/DNA level with ligand (log10)

[
  {
    "Mutation notation": "UUAACG",
    "Observed": 1.88
  },
  {
    "Mutation notation": "CCCCUU",
    "Observed": 1.84
  },
  {
    "Mutation notation": "AAUGCG",
    "Observed": 1.82
  },
  {
    "Mutation notation": "GAUCUU",
    "Observed": 1.8
  },
  {
    "Mutation notation": "GAGAAG",
    "Observed": 1.79
  },
  {
    "Mutation notation": "UCUGGG",
    "Observed": 1.88
  },
  {
    "Mutation notation": "UCGAAU",
    "Observed": 1.69
  },
  {
    "Mutation notation": "GAUAUU",
    "Observed": 1.8
  },
  {
    "Mutation notation": "ACCCGA",
    "Observed": 1.73
  },
  {
    "Mutation notation": "CGAGUG",
    "Observed": 1.83
  },
  {
    "Mutation notation": "CUUUUG",
    "Observed": 1.92
  }
]

Reference source: the supplement of paper PMC6757056
